Recorded Cocklebur plant response rating values for a group of compounds are listed next.
tested on: cocklebur; test: Test B pre/postemergence cocklebur; assay type: in vivo, Xanthium strumarium; conditions: Postemergence, Rate 250 g/ha; scale of 0 to 10, 0 is no effect, 10 is complete control
Property: Cocklebur plant response rating

CC(C)N(C(=O)n1oc(=O)n(CNC(=O)c2ccccc2)c1=O)c1ccc(F)cc1F [Compound 619]	0
CC(=O)N(C)CCn1c(=O)on(C(=O)N(c2ccc(F)cc2)C(C)C)c1=O [Compound 625]	0
CC[C@@H](C)n1c(=O)on(C(=O)N(c2ccc(Cl)cc2)C(C)C)c1=O [Compound 665]	0
CC(C)N(C(=O)n1oc(=O)n(CCCC#N)c1=O)c1ccccc1 [Compound 674]	2
